- procedure summary: Toxicity liver stage against HepG2, at 10uM
- Type: cell-based
- Parameters: test concentration 10 uM, cell line HepG2-A16-CD81EGFP
- reported conditions: human, HepG2-A16-CD81EGFP cells; read-out: INHIBITION
quantity name: cytotoxicity at 10 µM (%)
Report the figure in % without appending any unit label.

// below: answered compounds
compound	cytotoxicity at 10 µM (%)
NC(=O)c1ccc(CN2C(=O)C3(CCNCC3)Nc3ccccc32)cc1	-6.38
Cc1cccc(NC(=O)CN(C)C(=O)c2scnc2C)n1	-3.79
COCCC(=O)N1CCC(c2cc(O)n(C)n2)C1 (configuration not stated)	-23.1
COc1c(CNCc2cccnc2OC(C)C)c(C(C)C)nn1C	11.1
CN(c1cccc(C#N)c1)S(=O)(=O)c1cc(C(=O)O)ccc1Cl	-5.94

Which cytotoxicity at 10 µM is listed for `Cc1ccccc1CSc1ncccc1C(=O)N(C)C` ? -7.24

Item under review: `COc1c(CNCCNC(=O)c2ccc(C)cc2)c(C(C)C)nn1C` . Reported cytotoxicity at 10 µM? -0.945

---

Form field: cytotoxicity at 10 µM (one value per entry).
- procedure summary: Toxicity liver stage against HepG2, at 10uM
- Format: cell-based
- Set-up: test concentration 10 uM, cell line HepG2-A16-CD81EGFP
- reported conditions: human, HepG2-A16-CD81EGFP cells; read-out: INHIBITION
Supply the numeric figure in %, leaving out any unit text.

Look over these answered cases.
compound	cytotoxicity at 10 µM / %
Oc1ccccc1-c1n[nH]c(C2CC2)n1	5.84
COc1nn(C)c2c1CCCN(C(=O)c1cccc(C)n1)C2	-97.3
Cc1nc(CN2CCN(CCCc3nc4ccccc4o3)CC2)no1	9.13
CC(C)CN(Cc1ccc(O)c(C(=O)O)c1)Cc1ccccn1	8.5
Cc1cnn(CC2CCCN2C(=O)c2ccc(OC(C)C)nc2)c1 (centres undefined)	-6.13

Consider the compound `Nc1nc2c(c(N3CCC(CN4CCCC4=O)CC3)n1)CCNCC2` and give its measured cytotoxicity at 10 µM. -3.95

// cytotoxicity at 10 µM lookup, key: `CCNc1ncc(C(=O)N[C@@H](C)[C@H](O)c2ccccc2)cn1` -4.71

Which cytotoxicity at 10 µM reading was recorded for the compound `CN(C)Cc1cc(-c2nccn2CCn2cccn2)ccc1O` ? -50.5

What measured cytotoxicity at 10 µM goes with `CCc1nc(C#N)c(N2CCC(c3nc(-c4ccccc4)no3)CC2)o1` ? 0.689

Suppose we examine the compound `CCC(CC)C(=O)N1CCCc2c(cnn2C)C1` ; what cytotoxicity at 10 µM value has been reported? 6.55

Report cytotoxicity at 10 µM for `CCc1cc(C(=O)N[C@@H]2CC[C@@H](N3CCOCC3)[C@@H]2O)no1` please. 37.5

Data request, read-out cytotoxicity at 10 µM, for `Cc1cnc(N(C)Cc2cnc3ccccc3n2)nc1N(C)C` 6.7

Tell me the measured cytotoxicity at 10 µM of `CC(=O)N1CCC(c2cncc(N3CCOCC3)n2)CC1` , please. 3.66

Recorded cytotoxicity at 10 µM for `Cc1nn(C)cc1-c1cc(C(=O)N2CCc3ncc(Cl)cc3C2)no1` , please? 1.18

Give the measured cytotoxicity at 10 µM of `Cc1ccccc1C(=O)CN1C(=O)c2ccccc2CS1(=O)=O` . -10.1

Returns the measured cytotoxicity at 10 µM for the input compound. Input: Cc1noc(C)c1C(=O)N1Cc2ncn(C)c2C(COCC(C)C)C1 (centres undefined) -105

Entry COc1ccc(NC(=O)NC(C)Cn2cccn2)cn1 (centres undefined) : reported cytotoxicity at 10 µM = ? -5.72

May I ask what cytotoxicity at 10 µM has been recorded for `Cc1cccc(CN2C(=O)CCC23CCN(c2ncc(F)cn2)CC3)n1` ? 9.11

Given the compound CC1CCCCN1C(=O)COc1nc(Cc2ccc(F)cc2)no1 (centres undefined) , what is its reported cytotoxicity at 10 µM? 1.43

What value of measured cytotoxicity at 10 µM is listed for `COCC(=O)N1CCN(S(=O)(=O)c2ccccc2)[C@@H](C(=O)OC)C1` ? 1.03

Suppose we examine the compound O=S1(=O)NCC2(CCCN(Cc3ccccn3)C2)Oc2ncccc21 (centres undefined) ; what cytotoxicity at 10 µM value has been reported? 2.22

Given CCN1CCOCC2(CCCN(C(=O)c3ccccc3F)C2)C1 (centres undefined) , state its recorded cytotoxicity at 10 µM. -4.9

Any idea what cytotoxicity at 10 µM was measured for `O=S(=O)(NC1=NCN(CCc2cccs2)CN1)c1ccc(F)cc1` ? -1.01

Find the recorded cytotoxicity at 10 µM belonging to CC1COc2ccccc2N1C(=O)c1ccnc(-n2cncn2)c1 (centres undefined) and report it. 12.5

Just for reference, ChEMBL document CHEMBL4513216 is where these values come from.
